Biological target: Rat M4 (Rattus norvegicus, UniProt P08485)
Construct: expressed in transfected cells; host or cells: CHO-K1 (ATCC), stably expressing M4 and Gqi5
Sequence (P08485 1-478): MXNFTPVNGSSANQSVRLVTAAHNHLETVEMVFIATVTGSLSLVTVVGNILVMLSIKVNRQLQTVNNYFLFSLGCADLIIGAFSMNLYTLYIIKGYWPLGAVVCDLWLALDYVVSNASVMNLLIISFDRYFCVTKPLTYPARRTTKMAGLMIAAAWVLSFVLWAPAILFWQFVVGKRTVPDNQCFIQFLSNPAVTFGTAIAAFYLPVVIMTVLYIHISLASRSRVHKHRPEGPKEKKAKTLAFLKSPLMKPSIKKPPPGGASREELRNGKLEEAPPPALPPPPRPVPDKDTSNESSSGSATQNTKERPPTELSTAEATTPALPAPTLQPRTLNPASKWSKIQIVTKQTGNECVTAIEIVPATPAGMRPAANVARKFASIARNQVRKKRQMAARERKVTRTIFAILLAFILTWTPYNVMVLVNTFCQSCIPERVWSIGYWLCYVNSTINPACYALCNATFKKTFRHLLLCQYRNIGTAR
Assay: mAChR M4 cell-based functional calcium flux assay (rat M4/Gqi5/CHO cells)
Conditions: decrease of the response to an EC80 concentration of acetylcholine
Please assign 0 (no) whenever IC50 is at or above 200 nM, and 1 (yes) whenever it is below.

Previously resolved entries follow.
Cc1nn(C)cc1-c1nnc(NCC2CC23CCN(CC24CC5CC(CC(C5)C2)C4)CC3)c2ccccc12 (centres unmarked) : 0 (no)
CC(C)(C)CCN1CCC2(CC1)CC2CNc1ccc(-c2ccc3ncccc3c2)nn1 (centres unmarked) : 1 (yes)
CC(C)(C)CCN1CCC2(CC1)CC2CNc1ccc(-c2ccccc2F)nn1 (centres unmarked) : 1 (yes)
CC(C)(C)CCN1CCC2(CC1)CC2CNc1ccc(-c2cc(F)ccc2F)nn1 (centres unmarked) : 1 (yes)

hey, is IC50 for `Fc1ccc(Cl)c(-c2ccc(NC[C@@H]3CC34CCN(CC35CC6CC(CC(C6)C3)C5)CC4)nn2)c1` lower than 200 nM or not?
1 (yes)

Another compound to look at: CC(C)(C)CCN1CCC2(CC1)CC2CNc1ccc(-c2ccc3ccccc3c2)nn1 (centres unmarked)
0 (no)

Another compound to look at: Cc1nn(C)cc1-c1ccc(NCC2CC23CCN(CC(C)C(C)(C)C)CC3)nn1 (centres unmarked)
1 (yes)

Another compound to look at: CC(C)(C)CCN1CCC2(CC1)CC2CNc1ccc(-c2ccc(F)cc2)nn1 (centres unmarked)
1 (yes)

Another compound to look at: Cc1noc(C)c1-c1ccc(NCC2CC23CCN(CCC(C)(C)C)CC3)nn1 (centres unmarked)
1 (yes)

Another compound to look at: Fc1ccc(Cl)c(-c2ccc(NCC3CC34CCN(CC35CC6CC(CC(C6)C3)C5)CC4)nn2)c1 (centres unmarked)
0 (no)

Another compound to look at: Cc1nn(C)cc1-c1ccc(NCC2CC23CCN(CC2CC4C=CC2C4)CC3)nc1 (centres unmarked)
1 (yes)

Another compound to look at: `Fc1ccc(Cl)c(-c2ccc(NC[C@H]3CC34CCN(CC3CCCCC3)CC4)nn2)c1`
0 (no)

Another compound to look at: Cc1ccncc1-c1ccc(NCC2CC23CCN(CCC(C)(C)C)CC3)nn1 (centres unmarked)
1 (yes)

Another compound to look at: CC(=O)Nc1ccc(-c2ccc(NCC3CC34CCN(CCC(C)(C)C)CC4)nn2)cc1 (centres unmarked)
1 (yes)

Another compound to look at: `CC(=O)Nc1ccc(-c2ccc(NC[C@@H]3CC34CCN(CC3CCCCCC3)CC4)nn2)cc1`
1 (yes)

Another compound to look at: CC(CN1CCC2(CC1)CC2CNc1ccc(-c2cc(F)ccc2Cl)nn1)C(C)(C)C (centres unmarked)
0 (no)

Another compound to look at: Cc1cnn(C)c1-c1ccc(N(C)CC2CC23CCN(CCC(C)(C)C)CC3)nn1 (centres unmarked)
0 (no)

* * *

Measured IC50 by item
Biological target: UniProt:P08173
Sequence (P08173 whole entry): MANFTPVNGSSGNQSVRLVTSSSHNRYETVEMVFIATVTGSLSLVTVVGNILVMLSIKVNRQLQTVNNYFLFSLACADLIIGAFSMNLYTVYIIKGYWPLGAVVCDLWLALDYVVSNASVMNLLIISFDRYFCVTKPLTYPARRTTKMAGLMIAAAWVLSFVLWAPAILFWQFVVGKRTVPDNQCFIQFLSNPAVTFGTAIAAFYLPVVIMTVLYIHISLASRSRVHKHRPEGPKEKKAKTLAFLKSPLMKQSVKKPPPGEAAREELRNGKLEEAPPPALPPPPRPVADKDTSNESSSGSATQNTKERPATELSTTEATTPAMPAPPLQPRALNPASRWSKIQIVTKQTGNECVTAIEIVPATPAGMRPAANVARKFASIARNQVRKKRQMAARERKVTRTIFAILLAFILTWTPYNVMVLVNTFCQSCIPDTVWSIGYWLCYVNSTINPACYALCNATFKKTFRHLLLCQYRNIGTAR
Test: mAChR M4 cell-based functional calcium flux assay (human M4/Gqi5/CHO cells)
Conditions: decrease of the response to an EC80 concentration of acetylcholine
Give just the numeric value; nM need not be written.

Here are 5 compounds together with their reported answers.
CC(=O)Nc1ccc(-c2nnc(NCC3CC34CCN(CCC(C)(C)C)CC4)c(C)c2C)cc1 (centres unmarked) : 11.9
Cc1nn(C)cc1-c1cnc(NCC2CC23CCN(CCC(C)(C)C)CC3)cn1 (centres unmarked) : 64.7
CCCC(C)CN1CCC2(CC1)CC2CNc1ccc(-c2cn(C)nc2C)nn1 (centres unmarked) : 18.6
Cn1nccc1-c1ccc(NCC2CC23CCN(CCC(C)(C)C)CC3)nn1 (centres unmarked) : 3.71
Cc1nn(C)cc1-c1nnc(NCC2CC23CCN(CC2CCCCC2)CC3)c2ccccc12 (centres unmarked) : 16.1

# returns recorded IC50 (system: UniProt:P08173) for COc1ccc(F)cc1-c1ccc(NCC2CC23CCN(CCC(C)(C)C)CC3)nn1 (centres unmarked)
22.1

Another compound to look at: Cc1nn(C)cc1-c1nnc(NCC2CC23CCN(CC24CC5CC(CC(C5)C2)C4)CC3)c2ccccc12 (centres unmarked)
170

Another compound to look at: `Fc1ccc(Cl)c(-c2ccc(NC[C@H]3CC34CCN(CC3CCCCC3)CC4)nn2)c1`
27.8

* * *

Molecular target: Rat M4 (Rattus norvegicus, UniProt P08485)
Construct: expressed in transfected cells; host or cells: CHO-K1 (ATCC), stably expressing M4 and Gqi5
Experiment: mAChR M4 cell-based functional calcium flux assay (rat M4/Gqi5/CHO cells)
Details: decrease of the response to an EC80 concentration of acetylcholine
Measured pIC50 by item
Note: pIC50 values are expressed as the negative base-10 logarithm of concentration in M.

Here are 4 compounds together with their reported answers.
Cc1ccsc1-c1ccc(NCC2CC23CCN(CCC(C)(C)C)CC3)nn1 (centres unmarked) : 7.30
CC(C)(C)CCN1CCC2(CC1)CC2CNc1ccc(-c2ccc(F)cc2F)nn1 (centres unmarked) : 6.58
CC(C)(C)CCN1CCC2(CC1)CC2CNc1ccc(-c2cnccc2C(F)(F)F)nn1 (centres unmarked) : 7.03
Cc1nn(C)cc1-c1ccc(NCC2CC23CCN(CC2CCOCC2)CC3)nn1 (centres unmarked) : 6.70

Moving on to another compound below.
Using the record for CC(C)(C)CCN1CCC2(CC1)CC2CNc1ccc(-c2ccc3ccncc3c2)nn1 (centres unmarked) , report its pIC50.
7.32

* * *

Target: Mouse M4 (Mus musculus, UniProt P32211)
Construct: expressed in transfected cells; host or cells: CHO-K1 (ATCC), stably expressing M4 and Gqi5
Sequence (P32211 1-479): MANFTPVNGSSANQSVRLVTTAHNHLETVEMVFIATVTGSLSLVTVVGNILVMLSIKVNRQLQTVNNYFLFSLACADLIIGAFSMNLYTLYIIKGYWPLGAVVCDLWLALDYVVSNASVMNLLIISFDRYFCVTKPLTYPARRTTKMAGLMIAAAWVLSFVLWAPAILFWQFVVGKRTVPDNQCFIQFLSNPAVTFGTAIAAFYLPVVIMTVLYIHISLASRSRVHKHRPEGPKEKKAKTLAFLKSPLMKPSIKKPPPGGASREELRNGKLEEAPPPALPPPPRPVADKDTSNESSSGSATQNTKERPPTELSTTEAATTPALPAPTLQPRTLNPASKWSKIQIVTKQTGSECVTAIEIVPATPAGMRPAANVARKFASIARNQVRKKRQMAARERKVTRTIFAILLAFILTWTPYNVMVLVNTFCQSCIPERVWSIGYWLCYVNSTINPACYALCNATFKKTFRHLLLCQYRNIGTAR
Assay: mAChR M4 cell-based functional calcium flux assay (mouse M4/Gqi5/CHO cells)
Conditions: decrease of the response to an EC80 concentration of acetylcholine
Measured pIC50 by item
Note: pIC50 values are expressed as the negative base-10 logarithm of concentration in M.

Here are 5 compounds together with their reported answers.
C1=CC2CC1CC2CN1CCC2(CC1)CC2CNc1ccc2nncn2n1 (stereo not drawn) : 5.82
Fc1ccc(Cl)c(-c2ccc(OCC3CC34CCN(CC3CC5C=CC3C5)CC4)nn2)c1 (stereo not drawn) : 5.55
Fc1ccc(Cl)c(-c2ccc(NC[C@@H]3CC34CCN(CC3CCCOC3)CC4)nn2)c1 (stereo partly drawn) : 6.17
CC(C)(C)CCN1CCC2(CC1)CC2CNc1ccc2nccn2n1 (stereo not drawn) : 5.89
CC(C)(C)CCN1CCC2(CC1)CC2CNc1ccc(N2CCCCC2)nn1 (stereo not drawn) : 5.91

# returns recorded pIC50 (system: Mouse M4 (Mus musculus, UniProt P32211)) for CC(C)(C)CCN1CCC2(CC1)CC2CNc1ccc2nncn2n1 (stereo not drawn)
5.55
